- measurementDescription: Total Fluorescence Counterscreen for Inhibitors of the Interaction of Thyroid Hormone Receptor and Steroid Receptor Coregulator 2; further: potency means the concentration at half of the fitted maximal effect; tags describe the fitted curve by direction and shape or compound fluorescence and quenching
- experimentalConditions: TRb/SRC2 Texas Red total fluorescence interference; series mostly up to 106 µM
The campaign covered roughly 280,000 compounds. About 820 (0.29%) were called active. Roughly 1% stayed inconclusive and do not appear here. The list comes from a sample in which actives are over-represented; it also holds close analogues and randomly drawn compounds.
quantityName: Potency

>  <molecule>
Cn1c(C(=O)Nc2cccc(C(F)(F)F)c2)cc2c(=O)n3ccccc3nc21

>  <endpointResult>
44.7 µM [quencher] (active)

$$$$
>  <molecule>
Cc1ccc(Cl)cc1N(C)C(=O)Cn1nc(Cc2cccnc2)c2ccccc2c1=O

>  <endpointResult>
inactive

$$$$
>  <molecule>
CCOC(=O)c1c(NC(=O)Cc2coc3ccc(CC)cc23)sc2c1CCC2

>  <endpointResult>
inactive

$$$$
>  <molecule>
O=C(COc1ccc(Cl)cc1)Nc1ccccc1OCc1cc(=O)n2ccccc2n1

>  <endpointResult>
inactive

$$$$

Could you tell me Potency for each of these molecules? They are listed below.
1. N#C/C(=C/c1ccc(N2CCOCC2)o1)C(=O)N1CCOCC1
2. CCOc1cccc(NC(=O)c2ccc(F)c(S(=O)(=O)N(CC)c3cccc(C)c3)c2)c1
3. O=C(Nc1ccon1)c1sc2ccccc2c1Cl
4. CCCC(=O)Nc1ccc(NC(=O)c2sc3ccccc3c2Cl)cc1
5. O=C(Nc1ccc2c(c1)OCCO2)c1ccc(Cl)c(S(=O)(=O)N2CCCCC2)c1
6. CC(C)(C)OC(=O)N1CCC(c2c(C(=O)Nc3ccc4c(c3)OCO4)cnn2-c2ccccc2)CC1
7. COc1ccc(CNC(=O)Cc2coc3ccc(C(C)C)cc23)cc1

1. 44.7 µM [fluorescent] (active)
2. inactive
3. inactive
4. 1.26 µM [quencher] (active)
5. inactive
6. inactive
7. inactive

Could you tell me Potency for each of these molecules? They are listed below.
1. COc1ccccc1NC(=O)CSc1oc(-c2ccco2)nc1S(=O)(=O)c1ccc(Br)cc1
2. Cc1cccc(CSc2nc3ccncc3n2CC(=O)N(C)C2CCCCC2)c1
3. CCN(CC)c1nn2c(=O)c(C(=O)NCCc3ccccc3)cnc2s1
4. CCn1cc2nc(SCc3cccc(F)c3)n(CCc3ccccc3)c(=O)c2n1
5. COc1cccc(NC(=O)C2CCN(c3cc(C)nc4c(-c5ccc(Cl)cc5)c(C)nn34)CC2)c1
6. COc1cccc(CNC(=O)Cc2csc3nc(-c4ccccc4)cn23)c1
7. O=C(Nc1ccc2c(c1)OCO2)c1ccc(N2C(=O)c3ccccc3C2=O)cc1
8. CCc1cccc(NC(=O)Cn2nc(CC)n3c(cc4cc(C)ccc43)c2=O)c1

["inactive", "inactive", "inactive", "inactive", "89.1 µM [quencher] (active)", "inactive", "0.0079 µM [quencher] (active)", "inactive"]

Could you tell me Potency for each of these molecules? They are listed below.
1. Cn1c(SCC(=O)N2CCCc3ccccc32)ncc(C(=O)Nc2ccc(F)cc2)c1=O
2. CCCCCCCCCCCCCCCC
3. Cc1ccc(C)c(N2CCN(S(=O)(=O)c3ccc4c(c3)C(C(C)C)C(=O)N4)CC2)c1 (stereo not drawn)
4. Cc1c2cnn(-c3ccccc3)c(=O)c2c(C)n1C(C)C(=O)Nc1ccc(Br)cc1F (stereo not drawn)

inactive
inactive
inactive
inactive

Could you tell me Potency for each of these molecules? They are listed below.
1. CC(C)(C)OC(=O)N1CCC(c2c(C(=O)NCc3ccccn3)cnn2-c2ccc(F)cc2)CC1
2. CSc1ccccc1NC(=O)CCS(=O)(=O)c1nc(-c2cccs2)cc(C(F)(F)F)n1
3. COc1ccc(C)cc1N(CC(=O)N1CCC(C)CC1)S(=O)(=O)c1ccc(C)cc1
4. O=C(Oc1ccc([N+](=O)[O-])cc1)c1ccc(Cl)c(S(=O)(=O)N2CCCCC2)c1
5. Cn1c(=O)c2c(ncn2CC(=O)Nc2cccc(C(F)(F)F)c2)n(C)c1=O
6. Cc1ccc(C)c(N2CCN(C(c3ccccc3)c3nnc(-c4ccccc4)o3)CC2)c1 (stereo not drawn)

inactive
inactive
inactive
0.316 µM [quencher] (active)
inactive
inactive

Could you tell me Potency for each of these molecules? They are listed below.
1. Cc1cccc(Cc2c(C)nc3nc(SCc4ccccc4Cl)nn3c2C)c1
2. O=C(NCCCN1CCN(c2cccc(Cl)c2)CC1)c1nnc(Cc2ccc(F)cc2Cl)o1
3. CCC(=O)N1N=C(c2ccc(OC)cc2)CC1c1cn(-c2ccccc2)nc1-c1cccs1 (stereo not drawn)
4. COc1ccc(-c2c(C)nn3c(N4CCC(C(=O)N5CCCCC5)CC4)cc(C)nc23)cc1OC

1: inactive; 2: inactive; 3: inactive; 4: inactive
